Heads up, these compounds all have MIC values measured for Escherichia coli NCTC 10418.

Compound | Property name | Experimental result
CC[C@H](C)[C@H](NC(=O)[C@H](CC(C)C)NC(=O)[C@H](C)NC(=O)[C@H](CO)NC(=O)[C@@H](NC(=O)[C@H](CC(C)C)NC(=O)[C@@H](N)CC(N)=O)C(C)C)C(=O)N[C@@H](CCC(=O)O)C(=O)NCC(=O)N[C@@H](CCCN=C(N)N)C(=O)N[C@@H](CCCCN)C(=O)N[C@@H](Cc1ccc(O)cc1)C(=O)N[C@@H](CC(C)C)C(=O)N[C@@H](CCCCN)C(=O)N[C@@H](CC(N)=O)C(=O)N[C@H](C(=O)N[C@@H](CC(C)C)C(=O)N[C@@H](CCCCN)C(=O)O)C(C)C [NLVSALIEGRKYLKNVLK] | MIC | ≥ 62.2 µM

## Task Supply recorded MIC for CC[C@H](C)[C@H](NC(=O)[C@@H](NC(=O)CNC(=O)[C@@H]1CCCN1C(=O)[C@@H](NC(=O)[C@@H](NC(=O)[C@H](CC(N)=O)NC(=O)[C@H](C)NC(=O)[C@H](C)NC(=O)[C@@H](NC(=O)[C@H](CCCCN)NC(=O)[C@H](CC(C)C)NC(=O)[C@@H](NC(=O)CNC(=O)[C@@H]1CCCN1C(=O)[C@H](CC(C)C)NC(=O)[C@@H](N)Cc1ccccc1)[C@@H](C)CC)C(C)C)C(C)C)C(C)C)C(C)C)C(=O)O [FLPGILKVAANVVPGVI] here.
## Result ≥ 512 µM

###

Below are MIC values recorded for Klebsiella pneumoniae.
Please respond with the number in µM and leave the unit unwritten.

// worked examples, MIC included
Molecule | Measurement target | Quantity unit | MIC
CC(C)C[C@H](NC(=O)[C@H](Cc1c[nH]c2ccccc12)NC(=O)CNC(=O)[C@H](CC(C)C)NC(=O)[C@@H](N)Cc1ccccc1)C(=O)N[C@@H](Cc1ccccc1)C(=O)N[C@@H](CCCCN)C(=O)N[C@H](C(=O)N[C@@H](C)C(=O)N[C@@H](CO)C(=O)N[C@@H](CCCCN)C(=O)O)C(C)C | Klebsiella pneumoniae | µM | 9.65
CC(C)C[C@H](NC(=O)[C@H](CCCN=C(N)N)NC(=O)[C@H](C)NC(=O)[C@H](C)NC(=O)[C@H](Cc1c[nH]c2ccccc12)NC(=O)CNC(=O)[C@H](CCCN=C(N)N)NC(=O)[C@@H](N)CCCN=C(N)N)C(=O)N[C@@H](Cc1ccccc1)C(=O)N[C@@H](C)C(=O)N[C@@H](C)C(=O)N[C@@H](Cc1ccccc1)C(=O)NCC(=O)N[C@@H](CCCN=C(N)N)C(=O)N[C@@H](CCCN=C(N)N)C(N)=O | Klebsiella pneumoniae | µM | 1.2

## Task Find the measured MIC of `CC[C@H](C)[C@H](NC(=O)[C@H](CCCN=C(N)N)NC(=O)[C@H](CCCN=C(N)N)NC(=O)[C@@H](NC(=O)[C@@H](N)CC(N)=O)[C@@H](C)CC)C(=O)N[C@H](C(=O)N[C@@H](CCCN=C(N)N)C(=O)N[C@@H](CCCCN)C(=O)N[C@H](C(=O)N[C@H](C(=O)N[C@@H](Cc1cnc[nH]1)C(=O)N[C@H](C(=O)N[C@H](C(=O)N[C@@H](CCCCN)C(=O)N[C@@H](CCCCN)C(=O)N[C@@H](Cc1ccc(O)cc1)C(=O)O)[C@@H](C)CC)[C@@H](C)CC)[C@@H](C)CC)[C@@H](C)CC)[C@@H](C)CC` with Klebsiella pneumoniae as test system.
## Result 0.818

###

- Tested on: Pseudomonas aeruginosa ATCC 9027
- Experiment: ≥ marks a high value that may be exact or a test limit, other limits are often not marked, values filed in µg/mL are converted to µM
Reported values of MIC for individual entries
Respond numerically; units are µM and should not be typed.

Molecule | Measurement target | Quantity unit | Experimental result
NC(=O)[C@H](Cc1ccccc1)NC(=O)[C@H](Cc1c[nH]c2ccccc12)NC(=O)[C@H](CCCN=C(N)N)NC(=O)[C@H](Cc1c[nH]c2ccccc12)NC(=O)[C@H](Cc1c[nH]c2ccccc12)NC(=O)[C@H](Cc1c[nH]c2ccccc12)NC(=O)[C@H](CCCN=C(N)N)NC(=O)[C@H](Cc1c[nH]c2ccccc12)NC(=O)[C@@H](N)Cc1ccccc1 | Pseudomonas aeruginosa ATCC 9027 | µM | 128

Kindly consider the entry below.
## Task Specify MIC for `CC(C)C[C@H](NC(=O)[C@H](C)NC(=O)[C@H](CCCCN)NC(=O)[C@H](CCCCN)NC(=O)[C@H](C)NC(=O)[C@@H](NC(=O)[C@H](C)NC(=O)[C@H](CC(C)C)NC(=O)[C@H](CC(C)C)NC(=O)[C@H](C)NC(=O)[C@H](CCCCN)NC(=O)[C@H](CC(C)C)NC(=O)[C@H](CC(N)=O)NC(=O)[C@@H](N)CC(C)C)C(C)C)C(N)=O` and stop.
## Result 32

###

- Tested on: Escherichia coli UB1005
Property name: MIC

## Task Give the observed MIC of CC[C@H](C)[C@H](N)C(=O)N[C@@H](CCCN=C(N)N)C(=O)N[C@H](C(=O)N[C@@H](CCCN=C(N)N)C(=O)N1CCC[C@H]1C(=O)N[C@H](C(=O)N[C@@H](CCCN=C(N)N)C(=O)N[C@H](C(=O)N[C@@H](CCCN=C(N)N)C(=O)N1CCC[C@H]1C(=O)O)[C@@H](C)CC)[C@@H](C)CC)[C@@H](C)CC [IRIRPIRIRP] for Escherichia coli UB1005.
## Result ≥ 128 µM

###

- System: Escherichia coli
Property name: MIC (µM)
Number only, in µM; omit the unit.

## Task Fill in MIC for `CC(C)C[C@H](NC(=O)[C@H](C)NC(=O)CNC(=O)[C@H](CC(C)C)NC(=O)[C@@H](N)Cc1ccccc1)C(=O)N[C@@H](Cc1ccccc1)C(=O)N[C@@H](CCCCN)C(=O)N[C@@H](CC(C)C)C(=O)N[C@@H](C)C(=O)N[C@@H](CO)C(=O)N[C@@H](CCCCN)C(=O)O` tested with Escherichia coli.
## Result 83.7

###

- Test system: Candida tropicalis IOC 4560
Listing of recorded MIC by entry.
Response body: numeric value in µM, unit text excluded.

Completed entries (count: 2):
Molecule | Property name | Quantity unit | Experimental result
CC[C@H](C)[C@H](N)C(=O)N[C@@H](CC(C)C)C(=O)NCC(=O)N[C@@H](CCCCN)C(=O)N[C@@H](Cc1ccccc1)C(=O)N[C@@H](Cc1c[nH]c2ccccc12)C(=O)N[C@@H](CCC(=O)O)C(=O)NCC(=O)N[C@H](C(=O)N[C@@H](CCCCN)C(=O)N[C@@H](CO)C(=O)N[C@@H](CC(C)C)C(=O)N[C@@H](Cc1ccccc1)C(N)=O)[C@@H](C)CC | MIC | µM | 1.56
CC(C)C[C@H](NC(=O)[C@H](C)NC(=O)[C@H](CCCCN)NC(=O)[C@H](CC(C)C)NC(=O)[C@@H](N)Cc1ccccc1)C(=O)N[C@@H](Cc1c[nH]c2ccccc12)C(=O)N[C@@H](CCCCN)C(=O)N[C@H](C(=O)N[C@@H](C)C(=O)N[C@@H](CCCCN)C(=O)N[C@@H](CO)C(=O)N[C@H](C(=O)N[C@@H](Cc1ccccc1)C(N)=O)C(C)C)C(C)C | MIC | µM | 0.8

# ---- query compound ----
## Task Report measured MIC on Candida tropicalis IOC 4560; entry: `CC[C@H](C)[C@H](N)C(=O)N[C@@H](CC(C)C)C(=O)N[C@@H](CC(C)C)C(=O)N[C@@H](CCCCN)C(=O)N[C@H](C(=O)N[C@@H](Cc1c[nH]c2ccccc12)C(=O)N[C@@H](CCC(=O)O)C(=O)NCC(=O)N[C@H](C(=O)N[C@@H](CCCCN)C(=O)N[C@@H](CO)C(=O)N[C@@H](CC(C)C)C(=O)N[C@@H](Cc1ccccc1)C(N)=O)[C@@H](C)CC)[C@@H](C)CC`
## Result 3.13

###

Notes on MIC obtained with Streptococcus mutans.
Reply numerically in µM, unit not repeated.

Compound | MIC (µM)
CC(C)C[C@H](NC(=O)[C@H](Cc1c[nH]c2ccccc12)NC(=O)[C@H](CCC(N)=O)NC(=O)[C@H](CC(C)C)NC(=O)[C@H](Cc1ccccc1)NC(=O)[C@@H](NC(=O)[C@H](CCCCN)NC(=O)[C@@H](N)Cc1ccccc1)[C@@H](C)O)C(=O)N[C@@H](Cc1cnc[nH]1)C(=O)N[C@@H](CCCN=C(N)N)C(=O)N[C@@H](Cc1ccccc1)C(N)=O [FKTFLQWLHRF] | 21
CC[C@H](C)[C@H](N)C(=O)N[C@@H](CCCCN)C(=O)N[C@H](C(=O)N[C@@H](CC(C)C)C(=O)N[C@@H](CC(C)C)C(=O)N[C@@H](Cc1cnc[nH]1)C(=O)N[C@@H](Cc1ccccc1)C(=O)N[C@@H](Cc1ccccc1)C(=O)N[C@@H](CCC(N)=O)C(=O)N[C@@H](CCCN=C(N)N)C(=O)N[C@@H](Cc1ccccc1)C(N)=O)[C@@H](C)O [IKTLLHFFQRF] | 30.8

## Task Given NC(N)=NCCC[C@H](NC(=O)[C@H](CCCN=C(N)N)NC(=O)[C@H](CCCN=C(N)N)NC(=O)[C@@H](N)CCCN=C(N)N)C(=O)N[C@@H](Cc1c[nH]c2ccccc12)C(=O)N[C@@H](Cc1c[nH]c2ccccc12)C(=O)N[C@@H](Cc1c[nH]c2ccccc12)C(=O)O [RRRRWWW] , respond with its MIC.
## Result 13.3
